# Study target: BSA (UniProt P02769)
# Sequence (P02769 25-607 limits assumed): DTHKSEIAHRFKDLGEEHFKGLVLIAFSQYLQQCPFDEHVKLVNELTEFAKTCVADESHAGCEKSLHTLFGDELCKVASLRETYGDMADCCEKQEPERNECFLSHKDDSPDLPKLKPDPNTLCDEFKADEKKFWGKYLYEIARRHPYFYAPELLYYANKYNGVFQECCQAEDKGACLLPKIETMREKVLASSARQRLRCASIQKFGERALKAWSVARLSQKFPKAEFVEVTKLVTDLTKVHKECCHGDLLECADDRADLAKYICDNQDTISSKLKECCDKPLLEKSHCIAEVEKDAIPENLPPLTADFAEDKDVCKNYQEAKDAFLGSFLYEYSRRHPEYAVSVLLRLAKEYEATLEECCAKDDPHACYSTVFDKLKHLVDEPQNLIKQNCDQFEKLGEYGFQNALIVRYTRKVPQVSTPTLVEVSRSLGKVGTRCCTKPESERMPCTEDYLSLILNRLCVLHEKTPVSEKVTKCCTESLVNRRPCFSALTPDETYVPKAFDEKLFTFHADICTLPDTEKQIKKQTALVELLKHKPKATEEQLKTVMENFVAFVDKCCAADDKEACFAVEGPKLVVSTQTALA
# Procedure summary: scFv ELISA
Kindly return fulfilled if reported OD450 is no lower than 0.07 OD450; return not fulfilled if it is lower.

Use these answered entries as a reference point.
PcOxP_DB04_D08 (scFv, V domains shown, scFv in periplasmic extract) VH: EVQLLESGGGLVQPGGSLRLSCAASGFTFSDHYMEWVRQAPGKGLEWVAASRNKANDYTTEYADSVKGRFTISRDNSKNTLYLQMNSLRAEDTAVYYCARDYYGSSYWYFDVWGQGTLVTVSS VL: DIQMTQSPSSLSASVGDRVTITCTASESLYSSKHKVHYLAWYQQKPGKAPKLLIYGASNRAIGVPSRFSGSGSGTDFTLTISSLQPEDFATYYCAQFYTYPLTFGGGTKVEIK    fulfilled
PcOxP_DB01_C07 (scFv, V domains shown, scFv in periplasmic extract) VH: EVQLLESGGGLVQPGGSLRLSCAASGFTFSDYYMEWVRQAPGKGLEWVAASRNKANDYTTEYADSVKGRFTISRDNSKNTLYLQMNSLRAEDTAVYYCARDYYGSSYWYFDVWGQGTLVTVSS VL: DIVMTQSPDSLAVSLGERATINCTASESLYSSKHKVHYLAWYQQKPGQPPKLLIYGASNRYDGVPDRFSGSGSGTDFTLTISSLQAEDVAVYYCAQFYSYPLTFGGGTKVEIK    not fulfilled
PcOxP_DB01_H03 (scFv, V domains shown, scFv in periplasmic extract) VH: EVQLLESGGGLVQPGGSLRLSCAASGFTFSDHYMEWVRQAPGKGLEWVAASRGKGNSYTTAYADSVKGRFTISRDNSKNTLYLQMNSLRAEDTAVYYCARDYYGSSYWYFDVWGQGTLVTVSS VL: DIVMTQSPDSLAVSLGERATINCTASESLYSSKHKVHYLAWYQQKPGQPPKLLIYGAGNRYIGVPDRFSGSGSGTDFTLTISSLQAEDVAVYYCAQFYHYPLTFGGGTKVEIK    fulfilled

Here is another binder to look at.
Request: # bool: OD450 of PcOxP_DB01_C12 (scFv, V domains shown, scFv in periplasmic extract) VH: EVQLLESGGGLVQPGGSLRLSCAASGFTFSDFYMEWVRQAPGKGLEWVAASRNKANDYTTELADSVKGRFTISRDNSKNTLYLQMNSLRAEDTAVYYCARDYYGSSYWYFDVWGQGTLVTVSS VL: DIQMTQSPSSLSASVGDRVTITCTASESLYSSKHKVHYLAWYQQKPGKAPKLLIYGAANRYIGVPSRFSGSGSGTDFTLTISSLQPEDFATYYCAQFYVYPLTFGGGTKVEIK >= 0.07 OD450
Result: fulfilled
